- target_or_test_system: E3 ubiquitin-protein ligase XIAP (Homo sapiens) (UniProt P98170)
- Sequence (P98170 whole entry, looked up): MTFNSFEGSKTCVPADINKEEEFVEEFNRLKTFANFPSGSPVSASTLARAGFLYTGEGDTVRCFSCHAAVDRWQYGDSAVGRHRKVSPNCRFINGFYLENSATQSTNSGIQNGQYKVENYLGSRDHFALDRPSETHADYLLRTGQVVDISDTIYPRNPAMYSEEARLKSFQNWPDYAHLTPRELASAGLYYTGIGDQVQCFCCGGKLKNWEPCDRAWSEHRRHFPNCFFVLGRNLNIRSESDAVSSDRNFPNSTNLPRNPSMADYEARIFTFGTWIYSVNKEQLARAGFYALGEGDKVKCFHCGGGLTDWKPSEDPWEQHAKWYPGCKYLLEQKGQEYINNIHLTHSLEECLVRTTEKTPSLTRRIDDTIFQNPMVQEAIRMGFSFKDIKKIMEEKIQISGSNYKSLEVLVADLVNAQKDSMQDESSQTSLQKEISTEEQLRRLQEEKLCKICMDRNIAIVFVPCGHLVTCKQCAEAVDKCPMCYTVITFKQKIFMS
- experimental_protocol: XIAP binders, primary screen, biophysical, small-molecule microarray, fluorescence 635 nm (AID 1181);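 also: score merges 667 nm emission and signal to noise over triplicate slides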
- experimental_conditions: small-molecule microarray binding, higher = more signal
Measured composite z-score values are reported for all entries that follow.

molecule | target_or_test_system | composite z-score
COC(=O)CC=C[C@@H](C)[C@@H](C=NOC(C)CN1CCCc2nc(C)c(C)cc21)NS(=O)(=O)c1ccc(C)cc1 (stereo not given in full) | E3 ubiquitin-protein ligase XIAP (Homo sapiens) (UniProt P98170) | 0.222
CCN1C(C)=C(C(=O)OC)[C@@H](c2ccccc2)N2C(=O)[C@](O)(C(=O)OC)CC(C(C)=O)=C12 | E3 ubiquitin-protein ligase XIAP (Homo sapiens) (UniProt P98170) | 0.0264
COc1ccc(O[C@H]2C=C[C@@H](c3ccccc3)O[C@@H]2CON=C2c3cc(OC)ccc3O[C@H](c3cccc(OC)c3)[C@H]2O)cc1 | E3 ubiquitin-protein ligase XIAP (Homo sapiens) (UniProt P98170) | -0.206
CCOC(=O)[C@H](Cc1ccccc1)NC(=O)CCC1CC(OC(=O)NCc2ccc3c(c2)OCO3)CC2(CCCC(COC(=O)NCCOc3ccccc3)O2)O1 (stereo not given in full) | E3 ubiquitin-protein ligase XIAP (Homo sapiens) (UniProt P98170) | -0.0832
CCOC(=O)[C@H](CC(C)C)NC(=O)CCC1CC(OC(=O)NCc2ccc3c(c2)OCO3)CC2(CCCC(COC(=O)NCCc3ccccc3OC)O2)O1 (stereo not given in full) | E3 ubiquitin-protein ligase XIAP (Homo sapiens) (UniProt P98170) | -0.102
CCN1C(=O)[C@H]2[C@@H]3C(=CC[C@H]2C1=O)C(=O)[C@H]1O[C@H]1[C@H]3O | E3 ubiquitin-protein ligase XIAP (Homo sapiens) (UniProt P98170) | 0.334
CCN1C(=O)[C@H]2[C@H]3[C@H](O)[C@H](O)CC(=NNC(=O)OCc4ccccc4)[C@@H]3CC[C@H]2C1=O | E3 ubiquitin-protein ligase XIAP (Homo sapiens) (UniProt P98170) | -0.0476
COc1ccc(O[C@H]2C=C[C@@H](c3ccccc3)O[C@@H]2COC(=O)CCC(C)=NOC[C@@H](O)COCc2ccco2)cc1 | E3 ubiquitin-protein ligase XIAP (Homo sapiens) (UniProt P98170) | 0.122
COC(=O)[C@H](C)NC(=O)CCC1CC(OC(=O)NCc2cccc3ccccc23)CC2(CCCC(COC(=O)NCCC(C)C)O2)O1 (stereo not given in full) | E3 ubiquitin-protein ligase XIAP (Homo sapiens) (UniProt P98170) | -0.191
CC(CCN1CCCCc2nc(C)c(C)cc21)=NO[C@H](C)c1cn([C@@H]2COC[C@H]2O)nn1 | E3 ubiquitin-protein ligase XIAP (Homo sapiens) (UniProt P98170) | 0.256
O=C1C2=CC[C@H]3C(=O)N(C4CCCCC4)C(=O)[C@H]3[C@H]2[C@H](O)[C@@H]2O[C@H]12 | E3 ubiquitin-protein ligase XIAP (Homo sapiens) (UniProt P98170) | 0.0694
CC(C)=CCCC(C)=CCON=C1C[C@@H](O)[C@@H](O)[C@@H]2[C@@H]3C(=O)N(Cc4ccc5c(c4)OCO5)C(=O)[C@@H]3CC[C@@H]12 | E3 ubiquitin-protein ligase XIAP (Homo sapiens) (UniProt P98170) | -0.17
COCC#Cc1ccc([C@@H]2N[C@H](C(=O)O)CC[C@H]2C)cc1 | E3 ubiquitin-protein ligase XIAP (Homo sapiens) (UniProt P98170) | -0.416
CCOC(=O)[C@H](Cc1ccccc1)NC(=O)CCC1CC(OC(=O)NCCc2ccc(F)cc2)CC2(CCCC(COC(=O)NCCOc3ccccc3)O2)O1 (stereo not given in full) | E3 ubiquitin-protein ligase XIAP (Homo sapiens) (UniProt P98170) | -0.0166
O=C1C[C@H](c2ccccc2)[C@H](c2ccc(Br)cc2)O1 | E3 ubiquitin-protein ligase XIAP (Homo sapiens) (UniProt P98170) | -0.0438
